The reader will find reported MFI values listed item by item below.
target: monkey DLL3 on CHO-K1-cyno DLL3 cells (cynomolgus monkey); test: FACS, CHO-K1-cyno DLL3 cells, 0.16 nM antibody
Sequence (chain, as listed by the source limits assumed): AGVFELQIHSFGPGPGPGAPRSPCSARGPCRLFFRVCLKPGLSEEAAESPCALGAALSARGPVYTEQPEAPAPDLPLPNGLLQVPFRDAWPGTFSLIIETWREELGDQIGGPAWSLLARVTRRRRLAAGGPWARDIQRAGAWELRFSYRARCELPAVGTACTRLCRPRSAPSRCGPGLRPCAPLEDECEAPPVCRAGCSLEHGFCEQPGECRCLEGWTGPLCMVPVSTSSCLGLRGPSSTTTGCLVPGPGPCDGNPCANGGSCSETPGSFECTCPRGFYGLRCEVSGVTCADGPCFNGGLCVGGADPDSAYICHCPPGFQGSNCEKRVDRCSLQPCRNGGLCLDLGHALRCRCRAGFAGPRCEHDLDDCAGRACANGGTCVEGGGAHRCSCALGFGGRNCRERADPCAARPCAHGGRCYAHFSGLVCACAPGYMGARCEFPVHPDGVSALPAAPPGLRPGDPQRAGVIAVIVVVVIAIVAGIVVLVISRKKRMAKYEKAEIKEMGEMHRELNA
Answer format: numeric, MFI implied, no suffix.

Binder	Endpoint Unit	MFI
Hab015VL5VH1a-hFc (scFv, part only; not given: scFv linker and human IgG1 Fc, V domains shown, not shown: another chain or arm of the molecule; a dimerising Fc or GST; small tags and cut ends) VL: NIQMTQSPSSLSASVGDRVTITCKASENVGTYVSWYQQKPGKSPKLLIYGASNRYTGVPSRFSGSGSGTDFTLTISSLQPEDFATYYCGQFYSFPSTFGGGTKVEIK VH: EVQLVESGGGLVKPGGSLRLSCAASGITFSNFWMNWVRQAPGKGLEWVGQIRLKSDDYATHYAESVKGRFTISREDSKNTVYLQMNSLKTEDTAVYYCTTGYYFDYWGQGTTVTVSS	MFI	1190
Hab006VL4VH1-hFc (scFv, part only; not given: scFv linker and human IgG1 Fc, V domains shown, not shown: another chain or arm of the molecule; a dimerising Fc or GST; small tags and cut ends) VL: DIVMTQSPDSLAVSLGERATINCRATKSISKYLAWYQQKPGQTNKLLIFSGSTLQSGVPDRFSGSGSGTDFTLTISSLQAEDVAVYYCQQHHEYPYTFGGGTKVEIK VH: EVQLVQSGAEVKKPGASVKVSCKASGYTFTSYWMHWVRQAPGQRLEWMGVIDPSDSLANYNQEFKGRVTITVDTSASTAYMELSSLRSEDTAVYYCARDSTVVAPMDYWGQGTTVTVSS	MFI	3350

Here is the next item to consider.
response.value for Hab015VL4VH5a-hFc (scFv, part only; not given: VL-VH linker and human IgG1 Fc, V domains shown, not shown: another chain or arm of the molecule; a dimerising Fc or GST; small tags and cut ends) VL: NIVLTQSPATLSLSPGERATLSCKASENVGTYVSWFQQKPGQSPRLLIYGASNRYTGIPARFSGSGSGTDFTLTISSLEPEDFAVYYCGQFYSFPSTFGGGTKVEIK VH: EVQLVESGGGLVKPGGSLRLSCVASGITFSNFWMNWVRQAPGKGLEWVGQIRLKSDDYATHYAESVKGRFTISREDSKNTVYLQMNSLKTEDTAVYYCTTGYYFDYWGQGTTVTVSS (field: MFI) = 1180
